method: Drug uptake in Sprague-Dawley rat muscle at 300 mg/kg, po administered for 7 days measured 4 hrs post dose on day 7
Type: ADME, organism-based, Muscle tissue
setup conditions: read-out: Drug uptake
recorded metric: concentration at 4 h (ng/g)
# output: bare number, implied unit ng/g

### Prompt Request the reported concentration at 4 h associated with `CC/C=C\C/C=C\C/C=C\C/C=C\C/C=C\C/C=C\CCC(=O)NCCNC(=O)c1ccccc1O`
### Response 425

----------
method: Plasma concentration in Sprague-Dawley rat at 300 mg/kg, po administered for 7 days measured 4 hrs post dose on day 7
Type: ADME, organism-based
recorded metric: concentration at 4 h (ng/mL)
# output: bare number, implied unit ng/mL

### Prompt Request the reported concentration at 4 h associated with `CC/C=C\C/C=C\C/C=C\C/C=C\C/C=C\C/C=C\CCC(=O)NCCNC(=O)c1ccccc1O`
### Response 116
